- Tgt: human beta1-adrenoceptor (Homo sapiens, UniProt P08588)
- Construct: expressed in transfected cells; host or cells: CHO cells
- Sequence (P08588 whole entry): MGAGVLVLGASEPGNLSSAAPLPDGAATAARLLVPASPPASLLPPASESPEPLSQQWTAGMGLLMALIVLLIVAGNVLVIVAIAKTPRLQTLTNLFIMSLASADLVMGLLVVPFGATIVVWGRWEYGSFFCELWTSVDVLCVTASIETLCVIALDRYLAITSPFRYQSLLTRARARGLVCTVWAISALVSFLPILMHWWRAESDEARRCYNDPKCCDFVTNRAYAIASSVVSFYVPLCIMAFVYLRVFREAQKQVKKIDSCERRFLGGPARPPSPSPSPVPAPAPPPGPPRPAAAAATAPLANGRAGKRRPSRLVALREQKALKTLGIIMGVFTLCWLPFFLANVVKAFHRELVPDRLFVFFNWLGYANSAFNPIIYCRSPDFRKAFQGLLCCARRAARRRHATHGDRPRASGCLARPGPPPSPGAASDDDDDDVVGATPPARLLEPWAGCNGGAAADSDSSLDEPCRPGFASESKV
- Measurement Protocol: 3H-CGP12177 whole-cell binding, beta1
- Test Context: 3H-CGP 12177 whole cell binding, CHO cells expressing human beta1-adrenoceptor; logarithmic value; read-out: Beta 1 Log KD (converted)
Experimental Readout: Kd (nM)

Req: Fill in: Kd of COc1ccc(OCCNCC(O)COc2ccc(OCCOC3CCCC3)cc2)cc1 (racemic) [Example 3] is ___
Resp: 7.41

Req: Bench note: what Kd did O=C1NCc2cc(OCCNC[C@H](O)COc3ccc4c(c3)OC[C@H](COc3ccc(F)cc3)O4)ccc21 [Example 26] show?
Resp: 4.17

Req: Which Kd is reported for this compound? O=C1NCc2cc(OCCNC[C@H](O)COc3ccc4c(c3)OC[C@@H](COc3ccc(F)cc3)O4)ccc21 [Example 25]
Resp: 0.794

Req: Query (compound): O[C@@H](CNCCOc1ccc2ncccc2c1)COc1ccc(CCCOCC2CC2)cc1 [Example 12] ; field requested: Kd
Resp: 0.832

a. NC(=O)c1ccc(OCCNC[C@H](O)COc2ccc(CCCOCC3CC3)cc2)cc1 [Example 8]
b. O=C1NCc2cc(OCCNC[C@H](O)COc3ccc4c(c3)OC[C@@H](CN3CCC(F)(F)CC3)O4)ccc21 [Example 43]
Req: Hi, I'm comparing a with b and wondering which one has the bigger number for Kd. Any idea? Pick one; state its label.
Resp: b
(b: 4.27 nM, a: 2.88 nM)

a. O=C1NCc2cc(OCCNC[C@H](O)COc3ccc4cc(OCC5CC5)ccc4c3)ccc21 [Example 29]
b. NC(=O)c1ccc(OCCNC[C@H](O)COc2ccc3cc(COCC4CC4)ccc3c2)cc1 [Example 28]
Req: Consider a and b . Which of these has its Kd at a higher number? Use the label to indicate which entry you chose.
Resp: b

P. O=C1NCc2cc(OCCNC[C@H](O)COc3ccc4c(c3)OC[C@@H](COc3ccncc3)O4)ccc21 [Example 30]
Q. CN(C)C(=O)c1ccc(OCCNC[C@H](O)COc2ccc(OCCOC3CCCC3)cc2)cc1 [Example 6]
R. O=C1NCc2cc(OCCNC[C@H](O)COc3ccc4c(c3)OC[C@@H](COCC3CC3)O4)ccc21 [Example 18]
S. Cc1ccccc1OC[C@@H]1COc2cc(OC[C@@H](O)CNCCOc3ccc4c(c3)CNC4=O)ccc2O1 [Example 39]
Req: Order the entries by their reported Kd, beginning at the minimum. # the answer lists labels in the order requested
Resp: S, R, Q, P

* * *

- Tgt: human beta2-adrenoceptor (Homo sapiens)
- Construct: expressed in transfected cells; host or cells: CHO cells
- Sequence (P07550 whole entry): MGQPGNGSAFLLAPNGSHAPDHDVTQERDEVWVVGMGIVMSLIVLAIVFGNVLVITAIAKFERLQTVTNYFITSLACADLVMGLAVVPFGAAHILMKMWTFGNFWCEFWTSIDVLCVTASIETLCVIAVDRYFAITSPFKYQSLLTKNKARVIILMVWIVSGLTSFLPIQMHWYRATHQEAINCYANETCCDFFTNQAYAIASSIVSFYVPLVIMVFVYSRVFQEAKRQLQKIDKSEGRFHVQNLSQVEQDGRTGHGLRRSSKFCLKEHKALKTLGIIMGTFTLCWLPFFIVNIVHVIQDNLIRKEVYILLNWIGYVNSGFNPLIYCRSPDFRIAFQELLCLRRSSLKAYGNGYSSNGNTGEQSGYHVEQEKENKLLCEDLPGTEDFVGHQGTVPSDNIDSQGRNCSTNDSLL
- Measurement Protocol: 3H-CGP12177 whole-cell binding, beta2
- Test Context: 3H-CGP 12177 whole cell binding, CHO cells expressing human beta2-adrenoceptor; logarithmic value; read-out: Beta 2 Log KD (converted)
Structures can show the parent of a compound that is named as a salt.
Experimental Readout: Kd (µM)

Req: For the compound shown here, NC(=O)c1ccc(OCCNC[C@H](O)COc2ccc3c(c2)OC[C@@H](COC2CCCC2)O3)cc1 [Example 16] , give the reported Kd.
Resp: 5.01

1. NC(=O)c1ccc(OCCNC[C@H](O)COc2ccc3c(c2)OC[C@@H](COCC2CC2)O3)cc1 [Example 11]
2. NC(=O)c1ccc(OCCNC[C@H](O)COc2ccc(CCCN3CCC(F)(F)CC3)cc2)cc1 [Example 41, dihydrochloride]
3. O=C1NCc2cc(OCCNC[C@H](O)COc3ccc4c(c3)OC[C@@H](COCC3CC3)O4)ccc21 [Example 18]
4. O=C1NCc2cc(OCCNC[C@H](O)COc3ccc4c(c3)OC[C@H](COc3ccc(F)cc3)O4)ccc21 [Example 26]
Req: # desc sort on Kd across 4 compounds Response format: the labels, sorted as the prompt asks.
Resp: 1, 3, 4, 2
(1: 10.2 µM, 3: 4.68 µM, 4: 2.51 µM, 2: 1.35 µM)
